Below: a set of entries, each annotated with reported solubility.
experiment: Solubility in water; type: physicochemical

Task item: State the recorded solubility for this entry: CCCCCCCCCCCCCCCCOP(=O)(CCN1C[C@@H](O)[C@H](O)C1)OC[C@H]1O[C@@H](n2ccc(=O)[nH]c2=O)[C@H](O)[C@@H]1O (some centres unmarked)
Reply: > 10000 µg/mL

More entries:
Task item: State the recorded solubility for this entry: CCCCCCCCCCCCCCCCOCCCOP(=O)(CCN1C[C@@H](O)[C@H](O)C1)OC[C@H]1O[C@@H](n2ccc(=O)[nH]c2=O)[C@H](O)[C@@H]1O (some centres unmarked)
Reply: > 10000 µg/mL
